// data source = ChEMBL document CHEMBL1201862

- Tested on: NCI-H226
- assay.info: NCI tumour cell line growth inhibition, 48 h
Active and inactive are the calls of the source. Cut-off read from the data, not from the text of the source: active = GI50 up to about 1.1 µM and inactive = higher. Where a SMILES comes first, the peptide text is derived from it. [ ]: non-standard residue; d: D form. The star is where a group is joined. Bn2Val = CC(C)[C@@H](C(=O)*)N(Cc1ccccc1)Cc1ccccc1; NH(4-F-benzyl) = Fc1ccc(CN*)cc1; NMeV = CN[C@H](C(=O)O)C(C)C; dNMeA = CN[C@H](C)C(=O)O
GI50 values for the molecules below.

molecule="O=C1C2C3C=C4c5ccccc5N(c5ccccc5)C4([C@@H]2C(=O)N1c1ccc(F)cc1)[C@H]1C(=O)N(c2ccc(F)cc2)C(=O)[C@@H]31 (some centres undefined)" measurement_target=NCI-H226 reported_result="> 100 µM (inactive)"

Look up and report measured GI50 for this entry: C[C@@H](O)CCC(=O)c1ccoc1
> 100 µM (inactive)

Look up and report measured GI50 for this entry: CC1=C/C(=N\N(C)C)C(C(O)(C(F)(F)F)C(F)(F)F)C(C)(C)C1 (centres undefined)
> 100 µM (inactive)

Look up and report measured GI50 for this entry: O=[N+]([O-])/C(C(Cl)=C(Cl)Cl)=C(\Nc1cccc2cccnc12)Sc1ccccc1
28.6 µM (inactive)

Look up and report measured GI50 for this entry: C=C1c2[nH]c3c([N+](=O)[O-])c(OC)ccc3c2CCN1C(C)=O
> 100 µM (inactive)

Look up and report measured GI50 for this entry: Cc1cccc2c1NC(c1c(C)[nH]c3ccccc13)C2 (centres undefined)
80.5 µM (inactive)

Look up and report measured GI50 for this entry: CCOC(=O)C1Oc2ccc([N+](=O)[O-])c3c2C1(O)CCC3 (centres undefined)
> 100 µM (inactive)

Look up and report measured GI50 for this entry: COc1ccc(OC)c(NC(=O)C(=O)Nn2c(S)nc3ccccc3c2=O)c1
> 100 µM (inactive)

Look up and report measured GI50 for this entry: CC(C)[C@H](NC(=O)[C@H](C(C)C)N(Cc1ccccc1)Cc1ccccc1)C(=O)N(C)[C@H](C(=O)N1CCC[C@H]1C(=O)N(C)[C@H](C)C(=O)NCc1ccc(F)cc1)C(C)C (Bn2Val-V[NMeV]P[dNMeA]-{NH(4-F-benzyl)})
2.65 µM (inactive)

Look up and report measured GI50 for this entry: CC(Nc1ccc(Cl)c(Cl)c1)c1ccncc1 (centres undefined)
17.9 µM (inactive)

Look up and report measured GI50 for this entry: CSc1nc2c(ncn2C2OCC(O)C(O)C2O)c(=O)n1C (centres undefined)
> 100 µM (inactive)

Look up and report measured GI50 for this entry: CC(=O)OC1[C@H](OC(C)=O)C2=C(C)[C@@H](OC(C)=O)C[C@@]2(C(C)(C)O)[C@@H](OC(C)=O)[C@H]2[C@@]1(C)[C@@H](OC(C)=O)CC(OC(C)=O)[C@]21CO1 (some centres undefined)
> 100 µM (inactive)

====

GI50 values for the compounds below.
- Tested on: DU-145
- assay.info: NCI tumour cell line growth inhibition, 48 h
Active and inactive are the calls of the source. Cut-off read from the data, not from the text of the source: active = GI50 up to about 1.1 µM and inactive = higher.

Reference set (3 entries):
compound="c1cnn(C23C4C5C6C4C2C6C53)c1 (centres undefined)" reported_result="> 100 µM (inactive)"
compound=COc1cc(CCCl)c(CC2=NCCc3cc(OC)c(OC)cc32)cc1OC reported_result="> 100 µM (inactive)"
compound="COCOc1ccc(C(=O)C(C)c2ccc(OCOC)cc2OCOC)c(O)c1 (centres undefined)" reported_result="> 100 µM (inactive)"

Look up and report measured GI50 for this entry: CCCNC(=O)CCC(C)[C@H]1CCC2C3C(C[C@H](OC(C)=O)[C@@]21C)[C@@]1(C)CCC2(C[C@H]1C[C@H]3OC(C)=O)OOC1(CCC(C)CC1)OO2 (some centres undefined)
9.31 µM (inactive)
